Biological target: Inhibitor of nuclear factor kappa-B kinase subunit epsilon (Homo sapiens, UniProt Q14164)
Sequence (Q14164 whole entry): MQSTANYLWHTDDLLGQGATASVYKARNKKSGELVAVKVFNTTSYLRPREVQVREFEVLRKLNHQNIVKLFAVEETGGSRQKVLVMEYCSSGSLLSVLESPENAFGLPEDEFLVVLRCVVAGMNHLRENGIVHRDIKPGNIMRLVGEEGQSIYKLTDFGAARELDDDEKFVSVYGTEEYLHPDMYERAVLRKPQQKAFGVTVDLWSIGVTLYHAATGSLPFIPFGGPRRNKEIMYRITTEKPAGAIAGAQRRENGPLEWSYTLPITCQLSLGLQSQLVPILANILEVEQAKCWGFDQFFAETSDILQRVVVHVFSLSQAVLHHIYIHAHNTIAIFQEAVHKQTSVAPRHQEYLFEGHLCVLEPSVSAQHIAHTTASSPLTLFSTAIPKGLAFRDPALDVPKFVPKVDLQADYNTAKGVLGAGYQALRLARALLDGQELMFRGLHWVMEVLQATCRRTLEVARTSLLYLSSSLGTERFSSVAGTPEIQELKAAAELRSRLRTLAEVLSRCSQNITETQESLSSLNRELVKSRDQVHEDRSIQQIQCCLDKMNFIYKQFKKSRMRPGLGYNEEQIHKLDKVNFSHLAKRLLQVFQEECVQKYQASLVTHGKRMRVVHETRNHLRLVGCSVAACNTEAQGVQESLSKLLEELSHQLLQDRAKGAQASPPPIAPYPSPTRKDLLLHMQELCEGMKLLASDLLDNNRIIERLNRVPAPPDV
Assay: Inhibition of IKKi (unknown origin) in presence of ATP

Compound: Cc1cc(-c2cnc(Nc3cc(Cl)cc(Cl)c3)nc2NC2CCC(N(C)C)CC2)on1 (stereo unspecified)
Assayed target: Inhibitor of nuclear factor kappa-B kinase subunit epsilon (Homo sapiens, UniProt Q14164)
IC50, µM: 30

====

Assay: Aqueous solubility of the compound at ph 6.5
Type: physicochemical
Value kind: solubility (µM)

Compound: COc1ccccc1CNc1ncc(C(=O)NCCCO)c(NC2CCCC2)n1
Measurement unit: µM
Number: 7.8
//
Compound: CN1CCC(NC(=O)c2cnc(NCc3cc(Cl)ccc3Cl)nc2NC2CCNCC2)CC1
Measurement unit: µM
Number: 200
//
Compound: O=C(NCCCN1CCOC1=O)c1cnc(NCc2cc(Cl)ccc2Cl)nc1NC1CCCC1
Measurement unit: µM
Number: 1.3
//
Compound: CN1CCC(NC(=O)c2cnc(NCc3cc(Cl)ccc3Cl)nc2NC2CCC(N(C)C)CC2)CC1 (stereo unspecified)
Measurement unit: µM
Number: 89
//
Compound: COc1ccccc1CNc1ncc(C(=O)NC2CCN(C)CC2)c(NC2CCCC2)n1
Measurement unit: µM
Number: 80
//
Compound: COc1ccccc1CNc1ncc(C(=O)NCCNC(C)=O)c(NC2CCCC2)n1
Measurement unit: µM
Number: 7.8
